- assayed system: Human factor D (Homo sapiens (Human))
- Sequence (P00746 26-253): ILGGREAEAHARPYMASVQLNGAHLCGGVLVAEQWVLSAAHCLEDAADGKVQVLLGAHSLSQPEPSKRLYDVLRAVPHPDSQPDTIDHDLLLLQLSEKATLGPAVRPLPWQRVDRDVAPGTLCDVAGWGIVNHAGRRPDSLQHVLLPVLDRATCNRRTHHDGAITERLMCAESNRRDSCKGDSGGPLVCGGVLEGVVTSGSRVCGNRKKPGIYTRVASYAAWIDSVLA
- experimental details: Human Factor D Assay
- Format: biochemical
property: IC50

Take a look at these entries with their results.
[
  {
    "compound": "CC(=O)c1cn(CC(=O)N2C[C@H](F)C[C@H]2C(=O)Nc2nc(-c3c(C)nc4sccn34)cs2)c2ccc(Nc3cncnc3)cc12 [Compound 49]",
    "reported measurement": "1 to 10 µM"
  },
  {
    "compound": "CC(=O)c1cn(CC(=O)N2C[C@H](F)C[C@H]2C(=O)Nc2ccccc2-n2nccc2C)c2ccc(Nc3cncnc3)cc12 [Compound 30]",
    "reported measurement": "1 to 10 µM"
  },
  {
    "compound": "CC(=O)c1cn(CC(=O)N2C[C@H](F)C[C@H]2C(=O)N[C@H]2CCCC[C@@H]2O)c2ccc(Nc3cncnc3)cc12 [Compound 36]",
    "reported measurement": "1 to 10 µM"
  },
  {
    "compound": "CNC(=O)[C@@H]1C[C@@H](F)CN1C(=O)Cn1cc(C(C)=O)c2cc(Nc3cncnc3)ccc21 [Compound 20]",
    "reported measurement": "1 to 10 µM"
  },
  {
    "compound": "CC(=O)c1cn(CC(=O)N2C[C@H](F)C[C@H]2C(=O)Nc2nnc(-c3ccccc3Cl)s2)c2ccc(Nc3cncnc3)cc12 [Compound 34]",
    "reported measurement": "1 to 10 µM"
  },
  {
    "compound": "COc1cc(C)cc2c1OCCC2NC(=O)[C@@H]1C[C@@H](F)CN1C(=O)Cn1cc(C(C)=O)c2cc(Nc3cncnc3)ccc21 (stereo partly shown) [Compound 54]",
    "reported measurement": "1 to 10 µM"
  }
]

Query :: Query (compound): CC(=O)c1cn(CC(=O)N2C[C@H](F)C[C@H]2C(=O)Nc2cccc(Cl)c2-n2cncn2)c2ccc(Nc3cncnc3)cc12 [Compound 37] ; field requested: IC50
Result :: 1 to 10 µM

Query :: Query (compound): CC(=O)c1cn(CC(=O)N2C[C@H](F)C[C@H]2C(=O)NCc2cccc(Cl)c2F)c2cc(N(CC(=O)N3C[C@H](F)C[C@H]3C(=O)NCc3cccc(Cl)c3F)S(C)(=O)=O)ccc12 [Compound 1] ; field requested: IC50
Result :: 1 to 10 µM

Query :: Query (compound): CC(=O)c1cn(CC(=O)N2C[C@H](F)C[C@H]2C(=O)Nc2ccccc2N2CCOC2=O)c2ccc(Nc3cncnc3)cc12 [Compound 40] ; field requested: IC50
Result :: 1 to 10 µM

Query :: Query (compound): CC(=O)c1cn(CC(=O)N2C[C@H](F)C[C@H]2C(=O)NC2CCc3c(F)ccc(F)c32)c2ccc(Nc3cncnc3)cc12 (stereo partly shown) [Compound 51] ; field requested: IC50
Result :: 1 to 10 µM

Query :: Query (compound): CC(=O)c1cn(CC(=O)N2C[C@H](F)C[C@H]2C(=O)NCc2nc3ccccc3s2)c2ccc(Nc3cncnc3)cc12 [Compound 16] ; field requested: IC50
Result :: 1 to 10 µM

Query :: Query (compound): CC(=O)c1cn(CC(=O)N2C[C@H](F)C[C@H]2C(=O)Nc2c[nH]nc2-c2ccc(Cl)cc2Cl)c2ccc(Nc3cncnc3)cc12 [Compound 55] ; field requested: IC50
Result :: 1 to 10 µM

Query :: Query (compound): CC(=O)c1cn(CC(=O)N2C[C@H](F)C[C@H]2C(=O)Nc2ccc(CN)cc2)c2ccc(Nc3cncnc3)cc12 [Compound 53] ; field requested: IC50
Result :: 1 to 10 µM
